assayed-system: His6-p37AUF1(Δ69-77) (human, UniProt Q14103-4 1-287, del69-77)
Sequence (Q14103 other isoform, or with tags, fused parts or gaps del69-77 | mutant): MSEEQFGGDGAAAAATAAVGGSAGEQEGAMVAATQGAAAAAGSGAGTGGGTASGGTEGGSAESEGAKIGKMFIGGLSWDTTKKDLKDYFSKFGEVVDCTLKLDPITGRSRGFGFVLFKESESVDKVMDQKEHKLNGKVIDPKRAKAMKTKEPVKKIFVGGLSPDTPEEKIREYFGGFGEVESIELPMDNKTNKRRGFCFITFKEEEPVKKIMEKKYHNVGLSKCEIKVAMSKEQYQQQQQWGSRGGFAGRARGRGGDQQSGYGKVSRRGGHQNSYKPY
run-description: fluorescence anisotropy; Anisotropy: 10 mM Tris-HCl pH 8.0, 100 mM KCl (50 mM for Fl-ARE2), 0.5 mM EDTA, 0.1 ug/ul acetylated BSA, 1 ug/ul heparin, 2 mM DTT, 25 C, RNA 0.2-0.4 nM; EMSA: same with 100 mM KCl, 10% glycerol, 1 nM RNA, on ice, UV crosslinked
study-conditions: protein: recombinant; chain copies: 2; label: 3' fluorescein
recorded-endpoint: Kd (nM)
Numeric answer only, unit nM assumed.

Asked: If you can, please state the reported Kd value of CCCCUGGCUCACAAAUACCUUAUUUAUUUAUUUAG (ssRNA) [ARE1-Fl] .
Given back: 89
